The values you see were collected from PubChem BioAssay (NCI).

# Test Description: NCI Yeast Anticancer Drug Screen. Data for the bub3 strain (AID 167)
# Condition: S. cerevisiae bub3 mutant strain, at 50.0 µM
Compounds without any hit were thinned out: in the full panel of roughly 79,000, 15% have a hit. Calls of active or inactive are those of the source. Rule as the data show it: active = growth inhibition above about 70%; inactive = the rest.
# output must be one of active, inactive

Compound | Group Label
O=c1oc2c(c(N(c3ccccc3)c3ccccc3)c1Cl)CCc1nc(-c3ccccc3)sc1-2 | inactive
C1=CCC(C(Nc2nncs2)Nc2nncs2)CC1 (stereo not given) | inactive
CCOC(=O)C1(C)CCCC1=O (stereo not given) | inactive
C=C1CC(OC(C)=O)/C=C(/C)CCC(C(C)(C)O)CC1O (stereo not given) | inactive
O=C1c2ccccc2C(=O)c2c1c([N+](=O)[O-])c1c(c2[N+](=O)[O-])OCO1 | inactive
Nc1cc(Cc2ccccc2)ccc1O | inactive
[Cl][Pd][Cl].[NH-]c1ccc(/C=C2\C=Cc3ccccc32)cc1.[NH-]c1ccc(/C=C2\C=Cc3ccccc32)cc1 | active
NC1=NC(=O)N(C2CC(O)C(COP(=O)(O)O)O2)C(I)C1 (stereo not given) | inactive

Request: Test call for this compound, please: CCc1cccc(NC(=O)c2cc(/C=C/c3ccccc3)[nH]c(=S)n2)c1
Result: inactive

Request: Try this compound too: C[C@@H](O)c1nc(C(N)=O)cs1
Result: inactive

Request: Field entry: CN[C@H]1CC[C@]23C[C@]24CC[C@]2(C)[C@@H]([C@H](C)N(C)C)CC[C@@]2(C)[C@@H]4CC[C@H]3C1(C)C
Result: inactive

Request: What do you get for O=C(CBr)c1cc2ncccc2c2ccccc12 ?
Result: active

Request: Another compound: Nc1ccncc1CCc1ccccc1
Result: inactive

Request: And for CC1CC=CCC1C(=O)OC/C=C/COC(=O)C1CC=CCC1C (stereo not given) ?
Result: inactive

Request: Same read-out for CC(C)C(=O)OCC1OC(n2cnc3c(=S)nc[nH]c32)C(OC(=O)C(C)C)C1OC(=O)C(C)C (stereo not given) ?
Result: inactive
